Recorded Kd for the following binders
Target: T1, IRP1 (iron regulatory protein 1) (rabbit, UniProt Q01059 1-889)
T1 sequence: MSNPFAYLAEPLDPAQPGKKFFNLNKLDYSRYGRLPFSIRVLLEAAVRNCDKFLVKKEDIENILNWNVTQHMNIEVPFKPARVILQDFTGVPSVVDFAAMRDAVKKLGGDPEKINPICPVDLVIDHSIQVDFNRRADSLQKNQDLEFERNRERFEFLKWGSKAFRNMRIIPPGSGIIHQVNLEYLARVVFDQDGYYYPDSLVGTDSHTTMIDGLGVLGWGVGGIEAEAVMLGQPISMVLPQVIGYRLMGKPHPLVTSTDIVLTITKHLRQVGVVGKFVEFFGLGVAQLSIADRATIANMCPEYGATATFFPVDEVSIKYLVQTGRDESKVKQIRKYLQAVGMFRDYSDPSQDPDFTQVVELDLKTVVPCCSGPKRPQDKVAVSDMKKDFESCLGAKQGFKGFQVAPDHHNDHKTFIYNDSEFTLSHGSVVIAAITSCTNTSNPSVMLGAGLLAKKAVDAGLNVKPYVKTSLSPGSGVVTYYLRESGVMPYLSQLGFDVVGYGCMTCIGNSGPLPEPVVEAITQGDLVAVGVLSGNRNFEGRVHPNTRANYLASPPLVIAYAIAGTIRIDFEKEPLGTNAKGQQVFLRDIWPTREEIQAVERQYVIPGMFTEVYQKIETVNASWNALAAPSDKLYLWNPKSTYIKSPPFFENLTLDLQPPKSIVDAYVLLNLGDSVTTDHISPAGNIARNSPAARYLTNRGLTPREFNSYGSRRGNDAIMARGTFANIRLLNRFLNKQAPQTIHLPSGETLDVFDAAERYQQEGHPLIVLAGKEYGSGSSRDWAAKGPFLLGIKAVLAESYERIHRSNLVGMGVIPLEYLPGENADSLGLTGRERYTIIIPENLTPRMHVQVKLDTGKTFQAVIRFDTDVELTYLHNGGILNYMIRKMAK
Assay: fluorescence anisotropy; 10 °C, no Mn2+; 40 mM HEPES pH 7.2, 100 mM KCl, 5-30 °C, ±50 µM Mn2+; labeled RNA 50 nM or 100 nM (Methods)
Details: protein: recombinant; label: 5' fluorescein; hairpin

binder: CCUCAUCUUUGUCAGUGCACAAAAUGGCG (structured_RNA) [ACO2 IRE-RNA (mitochondrial aconitase IRE)]
display.unit: nM
Kd: 69.6

binder: GUUCUUGCUUCAACAGUGUUUGAACGGAAC (structured_RNA) [FRT IRE-RNA (ferritin IRE)]
display.unit: nM
Kd: 7
